Test: qHTS of pediatric cancer cell lines to identify multiple opportunities for drug repurposing: Confirmatory screen for MG 63 (6-TG R) cells (AID 1347119); also: nearly all actives have a fitted effect of over 55% in size
Details: MG-63 (6-TG resistant) osteosarcoma viability; series mostly up to 45.9 µM
Protocol: Drug repurposing or repositioning has been offered as a strategy for drug development in oncology programs. […] [1] Shen, M et al. Quantitative high-throughput phenotypic screening of pediatric cancer cell lines identifies multiple opportunities for drug repurposing. […] Cells were assayed in growth media at a density of 500-1,000 cells/well. […] After a 15 min incubation at room temperature, samples were analyzed for luminescence intensity using a ViewLux High-throughput CCD imager equipped with clear filters.
Records with an inconclusive call do not appear. The source made the active and inactive calls. Calls follow the shape of the dose curve; as a rule, active = well fitted cell-killing curve with a large enough effect; inconclusive = small, poorly fitted or top-dose-only effect, or effect the other way; inactive = no such curve, though single readings can be large or run the other way. Residues, ends and D or L forms follow the SMILES beside them. *: point of attachment. Cbz = O=C(OCc1ccccc1)*
Classes used: Yes = active, No = inactive

molecule	assignedClass
CS[C@H]1SC[C@@H]2C(=O)N(C)[C@H](C(C)C)C(=O)OC[C@H](NC(=O)c3cnc4ccccc4n3)C(=O)N[C@H](C)C(=O)N(C)[C@@H]1C(=O)N(C)[C@H](C(C)C)C(=O)OC[C@H](NC(=O)c1cnc3ccccc3n1)C(=O)N[C@H](C)C(=O)N2C	No
Cc1cnc(Nc2ccc(N3CCN(C)CC3)cc2)nc1Nc1cccc(S(=O)(=O)NC(C)(C)C)c1	Yes
O=C(C=CC#Cc1cccc(NS(=O)(=O)c2ccccc2)c1)NO	Yes
COc1cc([C@@H]2c3cc4c(cc3[C@H](O)[C@H]3COC(=O)[C@@H]23)OCO4)cc(OC)c1OC	Yes
CNC(=O)c1ccc(Nc2cc(Nc3ccccc3S(=O)(=O)C(C)C)c3cc[nH]c3n2)nc1	Yes
COc1ccc(Nc2cc(-c3cnc(N)nc3)nc(N3CCOCC3)n2)cn1	Yes
CC1(C)O[C@@H]2C[C@H]3[C@@H]4CCC5=CC(=O)C=C[C@]5(C)[C@@H]4[C@@H](O)C[C@]3(C)[C@]2(C(=O)CO)O1	No
CCN(CC)Cc1ccc2cc(COC(=O)Nc3ccc(C(=O)NO)cc3)ccc2c1	No
CC(C)C[C@@H](C=O)NC(=O)[C@H](CC(C)C)NC(=O)[C@H](CC(C)C)NC(=O)OCc1ccccc1 (Cbz-Leu-Leu-Leu-aldehyde)	Yes
COc1cc(C=CC(=O)CC(=O)C=Cc2ccc(O)c(OC)c2)ccc1O	Yes
CN(CC(=O)N(Cc1ccc(C2CCCCC2)cc1)c1ccc(C(=O)O)c(O)c1)S(=O)(=O)c1c(F)c(F)c(F)c(F)c1F	Yes
C[C@@H](Oc1ccc2[nH]nc(C=Cc3cnn(CCO)c3)c2c1)c1c(Cl)cncc1Cl	Yes
CCC(C(=O)O)C1CCC(C)C(C(C)C(O)C(C)C(=O)C(CC)C2OC3(C=CC(O)[C@@]4(CC[C@](C)(C5CC[C@@](O)(CC)C(C)O5)O4)O3)C(C)CC2C)O1 (stereo partly specified)	No
Oc1cc(-c2nc(-c3ccccc3)[nH]c2-c2ccncc2)ccc1Cl	No
CC(=O)ON=C1C(c2c(O)[nH]c3cc(Br)ccc23)=Nc2ccccc21	Yes
CN[C@@H]1C[C@H]2O[C@@](C)([C@H]1OC)n1c3ccccc3c3c4c(c5c6ccccc6n2c5c31)C(=O)N[C@H]4O	Yes

###

Reported activity change, negative = inhibition values for the following molecules.
assay: NFAT Signaling Pathway (AID 444); conditions: Jurkat NFAT-bla M1, carbachol, beta-lactamase ratio, 5 h; at 17.2 µM (top of the series);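 also: carbachol stimulus at about its EC50 of 1 µM final; % is scaled to controls: 0 for no effect and ±100 for the full control effect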
Records with an inconclusive call do not appear. Active and inactive are the calls of the source. Calls come from the whole dose curve; as a rule, active = well fitted curve in either direction with a large enough effect (not every such curve was filed as active); inconclusive = small, poorly fitted or top-dose-only effect, or another doubt; inactive = flat fitted curve, though single readings scatter.
measurementLabel: activity change, negative = inhibition

>>> print(df.to_string())
                                   molecule        assayresult
0               c1coc(CNc2ncnc3nc[nH]c23)c1   1.53% (inactive)
1  Nc1nc2c(c(=O)[nH]1)N(C=O)[C@H](CNc1ccc(C(=O)N[C@@H](CCC(=O)O)C(=O)O)cc1)CN2    4.7% (inactive)
2  COc1ccc2c(c1OC)C(=O)OC2[C@H]1c2c(cc3c(c2OC)OCO3)CCN1C (stereo not given in full)  -11.3% (inactive)
3  CN1[C@H]2CC(OC(=O)[C@@H](CO)c3ccccc3)C[C@H]1[C@H]1O[C@H]12 (stereo not given in full)    -45.8% (active)
4  CCN1CCN(C(=O)N[C@H](C(=O)N[C@@H]2C(=O)N3C(C(=O)O)=C(CSc4nnnn4C)CS[C@@H]23)c2ccc(O)cc2)C(=O)C1=O   3.22% (inactive)

Recorded values, source PubChem BioAssay (NCATS).
